Test Details: Pharmacokinetic test in dogs (Experimental Example 6)
Type: in vivo
Experimental Parameters: dog, plasma, maximum (Experimental Example 6), read-out: half-life T1/2
Measured Property: half-life

Task: Please give the measured half-life for this compound: O[C@@H]1[C@H](O)CS[C@H]1n1cnc2c(NCc3cccc(Cl)c3)nc(Cl)nc21
Output: ≥ 5.53 h

* * *

Test Details: Pharmacokinetic test in rats (Experimental Examples 3 and 4)
Assay type: in vivo
Experimental Parameters: male, SD, rat, plasma, po; read-out: bioavailability Ft
Measured Property: bioavailability

Task: Name the reported bioavailability value associated with the molecule O[C@@H]1[C@H](O)CS[C@H]1n1cnc2c(NCc3cccc(Cl)c3)nc(Cl)nc21
Output: ≥ 99.9%
